What glycan array binding signal (z-score) was measured for each of the following?
TARGET_OR_TEST_SYSTEM: Neu5Ac(a2-6)Gal(b1-4)GlcNAc(b1-2)Man(a1-3)[Neu5Ac(a2-6)Gal(b1-4)GlcNAc(b1-2)Man(a1-6)]Man(b1-4)GlcNAc(b1-4)GlcNAc
PROTOCOL_SUMMARY: glycan array binding signal (z-score within array); higher = stronger binding
STUDY_CONDITIONS: glycan notation: IUPAC condensed, linker removed
This excerpt belongs to a sample that is enriched for the strongest signals.

Exercise: Looking for the measured glycan array binding signal (z-score) of RsaA-N-term (Caulobacter crescentus), P35828 (protein) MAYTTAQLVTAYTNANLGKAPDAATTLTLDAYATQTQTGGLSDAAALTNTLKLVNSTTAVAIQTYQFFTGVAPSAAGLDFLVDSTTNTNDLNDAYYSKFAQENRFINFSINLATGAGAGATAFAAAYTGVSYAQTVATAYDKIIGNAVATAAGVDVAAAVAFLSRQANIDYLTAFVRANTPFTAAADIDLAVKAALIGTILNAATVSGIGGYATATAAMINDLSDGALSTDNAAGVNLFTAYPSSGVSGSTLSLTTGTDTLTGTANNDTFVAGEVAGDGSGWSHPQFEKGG , can you help?
Key: 0.398

Exercise: Same question, AT3G09350(27) (Arabidopsis thaliana), Q84J81 (protein) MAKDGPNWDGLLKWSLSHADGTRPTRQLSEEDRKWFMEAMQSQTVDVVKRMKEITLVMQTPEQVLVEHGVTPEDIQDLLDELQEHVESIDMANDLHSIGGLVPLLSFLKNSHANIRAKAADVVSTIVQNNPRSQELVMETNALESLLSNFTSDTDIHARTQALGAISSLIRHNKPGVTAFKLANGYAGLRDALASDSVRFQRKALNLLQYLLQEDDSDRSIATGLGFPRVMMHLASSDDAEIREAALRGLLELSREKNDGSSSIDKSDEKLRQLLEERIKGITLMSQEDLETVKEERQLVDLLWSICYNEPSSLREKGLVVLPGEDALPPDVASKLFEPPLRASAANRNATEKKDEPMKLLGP this time
Key: 0.535
